# target system: Platelet-derived growth factor receptor (Homo sapiens, UniProt P09619+P16234)
# assay comment: Inhibition of the platelet-derived growth factor receptor.
# maps each entry to its pIC50
Kindly note that pIC50 refers to -log10 of the concentration in mol/L and answer with the value alone.

pIC50 lookup needed for O=C(Nc1cccc(Nc2nccc(-c3cccnc3)n2)c1)C1CCCCC1 , thanks.
6.10

pIC50 lookup needed for COc1ccccc1C(=O)Nc1cccc(Nc2nccc(-c3cccnc3)n2)c1 , thanks.
6.00

pIC50 lookup needed for O=C(Nc1cccc(Nc2nccc(-c3cccnc3)n2)c1)c1cccs1 , thanks.
4.70

pIC50 lookup needed for CN1CCN(Cc2ccc(C(=O)Nc3cccc(Nc4nccc(-c5cccnc5)n4)c3)cc2)CC1 , thanks.
6.70

pIC50 lookup needed for O=C(Nc1cccc(Nc2nccc(-c3cccnc3)n2)c1)c1ccc(F)cc1 , thanks.
5.52

pIC50 lookup needed for c1cncc(-c2ccnc(Nc3cccc(-n4ccnc4)c3)n2)c1 , thanks.
4.74

pIC50 lookup needed for Cc1ccc(C(=O)Nc2cccc(Nc3nccc(-c4cccnc4)n3)c2)cc1 , thanks.
6.10

----------
# assay comment: Dissociation constant pKa was determined
# Format: physicochemical
endpoint name: pKa
Write the value as a bare number.

pKa lookup needed for O=C(Nc1cccc(Nc2nccc(-c3cccnc3)n2)c1)c1cccnc1 , thanks.
2.56

----------
# target system: cAMP-dependent protein kinase (PKA) (Homo sapiens, UniProt P22694+P17612+P22612)
# assay comment: Inhibition of protein kinase A.
# Type: protein assay, unidentified
# maps each entry to its IC50

The cases that follow already have their IC50 on record.
c1ccc(Nc2nccc(-c3cccnc3)n2)cc1: > 500 µM
O=[N+]([O-])c1cccc(Nc2nccc(-c3ccccn3)n2)c1: > 500 µM
FC(F)C(F)(F)Oc1cccc(Nc2nccc(-c3ccncc3)n2)c1: > 500 µM
O=C(Nc1cccc(Nc2nccc(-c3cccnc3)n2)c1)C1CCCCC1: > 500 µM
Cc1ccc(C(=O)Nc2cccc(Nc3nccc(-c4cccnc4)n3)c2)cc1: > 500 µM
Cc1ccc(NC(=O)c2ccc3ccccc3c2)cc1Nc1nccc(-c2cccnc2)n1: > 100 µM
O=[N+]([O-])c1cccc(Nc2nccc(-c3ccncc3)n2)c1: > 500 µM
Cc1ccc(NC(=O)c2ccccc2)cc1Nc1nccc(-c2cccnc2)n1: > 500 µM
COc1ccccc1C(=O)Nc1cccc(Nc2nccc(-c3cccnc3)n2)c1: > 500 µM
O=C(Nc1cccc(Nc2nccc(-c3cccnc3)n2)c1)c1ccc(F)cc1: > 500 µM

IC50 lookup needed for Cc1ccc(NC(=O)c2ccc(Cl)cc2)cc1Nc1nccc(-c2cccnc2)n1 , thanks.
> 100 µM

IC50 lookup needed for CN1CCN(Cc2ccc(C(=O)Nc3cccc(Nc4nccc(-c5cccnc5)n4)c3)cc2)CC1 , thanks.
475 µM

IC50 lookup needed for O=C(Nc1cccc(Nc2nccc(-c3cccnc3)n2)c1)c1ccccn1 , thanks.
> 500 µM

IC50 lookup needed for N#Cc1ccc(C(=O)Nc2cccc(Nc3nccc(-c4cccnc4)n3)c2)cc1 , thanks.
> 500 µM

----------
# target system: Protein kinase C delta type (Homo sapiens, UniProt Q05655)
# Sequence (Q05655 whole entry): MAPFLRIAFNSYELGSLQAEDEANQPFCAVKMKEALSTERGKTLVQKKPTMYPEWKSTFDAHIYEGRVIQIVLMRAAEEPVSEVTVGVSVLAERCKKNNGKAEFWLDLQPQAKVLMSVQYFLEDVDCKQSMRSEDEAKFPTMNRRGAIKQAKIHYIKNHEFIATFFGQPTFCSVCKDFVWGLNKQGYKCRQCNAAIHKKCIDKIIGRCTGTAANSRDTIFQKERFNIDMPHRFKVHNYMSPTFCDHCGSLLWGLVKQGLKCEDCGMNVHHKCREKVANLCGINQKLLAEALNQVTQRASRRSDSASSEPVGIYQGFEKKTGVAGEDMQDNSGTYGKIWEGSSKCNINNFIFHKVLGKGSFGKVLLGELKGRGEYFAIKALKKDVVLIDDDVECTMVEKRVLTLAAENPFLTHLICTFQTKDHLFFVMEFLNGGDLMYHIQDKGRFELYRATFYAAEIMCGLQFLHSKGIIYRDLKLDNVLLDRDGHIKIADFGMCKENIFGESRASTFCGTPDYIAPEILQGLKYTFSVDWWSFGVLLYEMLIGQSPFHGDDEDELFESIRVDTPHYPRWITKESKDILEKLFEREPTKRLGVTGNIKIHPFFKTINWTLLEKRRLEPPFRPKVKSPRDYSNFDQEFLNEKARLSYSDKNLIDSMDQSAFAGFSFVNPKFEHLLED
# assay comment: Inhibition of protein kinase C delta.
endpoint name: IC50

The cases that follow already have their IC50 on record.
COc1ccccc1C(=O)Nc1cccc(Nc2nccc(-c3cccnc3)n2)c1: > 500 µM
O=[N+]([O-])c1cccc(Nc2nccc(-c3ccccn3)n2)c1: > 500 µM

// next item, IC50 requested
IC50 lookup needed for FC(F)C(F)(F)Oc1cccc(Nc2nccc(-c3ccc(Cl)cc3)n2)c1 , thanks.
> 100 µM
